# System: LXRa:RXRa (NR concentration 270 nM, RXRa partner concentration 90 nM)
# Assay comment: PBM binding z-score (relative to random genomic background probes); higher = stronger binding; sequences stand for … in GC…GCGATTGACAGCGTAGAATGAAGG
Property: PBM binding z-score; scope: individual sequences
Recorded metric: PBM binding z-score

INSERT INTO measurements (sequence_entry, recorded_metric, result) VALUES
  ('TCAAGTTGGTCACGGAGGTCACACACGACGGGTA', 'PBM binding z-score', 3.76),
  ('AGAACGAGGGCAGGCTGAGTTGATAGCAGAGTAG', 'PBM binding z-score', -0.562),
  ('CAAACTAGGTCACCGGAAGGTCAATGTCCGCATG', 'PBM binding z-score', 5.52),
  ('CTCAAAAGGTCGTGCTCAGGTGAGTATACCAAAC', 'PBM binding z-score', 4.03),
  ('GCTTACGGATCAAAGGTTATAGCATGAATAGAAT', 'PBM binding z-score', 2.43),
  ('GCTGATAGGTCAGGTTGGTCAGCTAACGGGTACG', 'PBM binding z-score', 2.19);

* * *

# Tested on: VDR homodimer (NR concentration 270 nM)
# Assay comment: PBM binding z-score (relative to random genomic background probes); higher = stronger binding; sequences stand for … in GC…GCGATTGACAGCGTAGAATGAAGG
# PBM binding z-score listing for each entry below
Recorded metric: PBM binding z-score

INSERT INTO assay_data (sequence_entry, measured_number) VALUES
  ('GCTTACGGGTCACAGGTTATAGCATGAATAGAAT', 0.608),
  ('GGAACGAGGACAAGTTGATAGCAGAGTTTGATGG', 0.892),
  ('ATAGACAGGTGAGTGAAGGTAACTCAGCTGGACG', -0.359),
  ('GTACCACGGTGAATAGGTCGTTGATGAGTAGGCG', 0.098),
  ('AGTCAAAGTTCATCTAGGTAACCTAAGATATGCT', 5.75),
  ('TCTTGTAGATCAGCAGGTAAAGAAAGCTGGCCAA', -0.431),
  ('ACTAGCAGGCCAAGGGTCACTCTAGATTAGTCCG', 1.03),
  ('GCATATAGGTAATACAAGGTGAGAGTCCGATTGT', 0.0557),
  ('GATACAGGGTCAAGGCCAGCGTACGCGTATTGAT', 1.31),
  ('ATCTCTAGGTAACAAGTTAAGTGAAAGAGAGGAC', 0.307),
  ('GCTGGCAGGCCATTTGGGTCACTCAATGACGGGC', 0.646),
  ('CCGAGGAGGTTATGGGGCATTCAGGCAACGGTGA', 0.25),
  ('CATACTAGGTCAAGGTCAAAGTCGGTTTGTGCCA', 4.88),
  ('TCTAGCAGGCCACAGGGTCACTCAAGAGGTACGG', 2.07),
  ('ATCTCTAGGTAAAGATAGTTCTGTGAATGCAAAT', 0.175),
  ('TCATATACGTAAATGCTAGGTGAAAGTCCGATCT', 0.147),
  ('TCTTGCAGATCAAAGGTTAAGAAAGCCGAAGCCT', -0.402),
  ('CCTCCTGGGCCAAAAAGGTCATTGATGCCGATAA', 2.38),
  ('GGAACGACGGCAAGTTGATAGCAGAGTTTGATGG', -0.205),
  ('GCTTGTAGCTCAAGGTTAAGAAAGACTAAGCTAA', -0.603),
  ('ATATGTAGGTTACATCCCGGTCATTCAGGCTATG', 1.12),
  ('TCTGCTAGGTCAGTTTGTCAGCTAACGAGCTGCC', -0.975),
  ('CTCGAAAGGTCGTGCTCAGGTGAGTATACCAAAC', 1.2),
  ('TTACCAAGGTGAGCCGAGGTCGTTGATCCAACTC', 1.98),
  ('GCCTGTAGATCAAGGTTAAGAAAGACTAAGCTAA', -0.568),
  ('CCTGCTAGGTCCTGGTCAGCTAATCTACAGTATG', -0.989);

* * *

# Tested on: LXRb:RXRa (NR concentration 270 nM, RXRa partner concentration 90 nM)
# Assay comment: PBM binding z-score (relative to random genomic background probes); higher = stronger binding; sequences stand for … in GC…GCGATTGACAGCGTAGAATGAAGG
Note that class boundaries on PBM binding z-score are lower segment: < 0.1; middle segment: ≥ 0.1 and < 2; upper segment: ≥ 2

INSERT INTO results (sequence_entry, assigned_class) VALUES
  ('ATGTGTAGGTTAGCTGGGGTCATTCAGACTAGGC', 'upper segment'),
  ('CCGACTGCGGCATAAGGTTACCATAAGCCAGCCC', 'middle segment'),
  ('TAGCCTAGGTCATGCTGGCCAGTATAGTGTCGGC', 'middle segment'),
  ('CTGAGTAGGTTATGGGGCATTCAGGCAACGGTGA', 'middle segment'),
  ('TATCCAGGGTCAAAGGCCAGAGTACGAATGTCGA', 'upper segment'),
  ('CGTCCAAGGTCAATGCTAGGTCAGTGAGAGCATT', 'upper segment'),
  ('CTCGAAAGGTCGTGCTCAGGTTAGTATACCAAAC', 'upper segment'),
  ('CCGACTGAGGCAAAGGTTACCATACTCAGTACGA', 'middle segment'),
  ('ACTATTAGTTGAGACGAGGGCACCCGATAGGTTG', 'lower segment'),
  ('AGTCAAAGTTCACCAGGTAACGTAAGATTCAGCT', 'upper segment'),
  ('CCTCGGAGGACGACAGGAGGTCAGAGCTGCCAGA', 'middle segment'),
  ('GCTAGTTGATCAGTAAAAGGTCACACACCGGTCG', 'upper segment'),
  ('ACTAGCAGGCCAAGTTTCGGTCACTCAAACAAAG', 'lower segment'),
  ('TCTGCTAGGTCAGTTGGTCAGTTAACGAGCTGCC', 'middle segment'),
  ('GCTTGTAGATCATGGTTAAGAAAGACTAAGCTAA', 'lower segment'),
  ('GCGGACAGGTGAAACGCAGGTAACTCAGGGTGGC', 'lower segment'),
  ('CAAACTAGCTCAAAGGTCAAAGTCGAGCCAACCA', 'upper segment'),
  ('CCTCGGAGGACAACAGGAGATCAGAGCTGCCAGA', 'lower segment'),
  ('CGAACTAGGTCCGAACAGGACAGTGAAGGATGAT', 'lower segment'),
  ('CCGACTGGGGCAATGGTTACCATACTCAGTACGA', 'lower segment'),
  ('GGAACGAGGGCAAGTTGATTGCAGAGTTTGATGG', 'middle segment'),
  ('AGAACGAGGGCAAGCTGAGTTGATAGCAGAGTAG', 'middle segment'),
  ('CTCGAAAAGTCGTGCTCAGGTGAGTATACCAAAC', 'lower segment'),
  ('CGTCAAAGTTGAAGGTAACGTAACAGAAAGCAGC', 'middle segment'),
  ('CGAACTAGGTCAACCAGGACAGTGAATACATTGA', 'upper segment'),
  ('CGTCCAAGCTCAAAGGTCAGTGAAGAGATGACGG', 'upper segment');

* * *

# Tested on: RXRa DBDmut IVT, anti-RXR (DBD mutation: RXRa K156A/R161A, NR concentration 90 nM)
# Assay comment: PBM binding z-score (relative to random genomic background probes); higher = stronger binding; sequences stand for … in GC…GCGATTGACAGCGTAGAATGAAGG
Recorded metric: PBM binding z-score

INSERT INTO measurements (sequence_entry, recorded_metric, result) VALUES
  ('CGTCAAAGTTCAAGGTAGCGTAACAGAAAGCAGC', 'PBM binding z-score', 4.38),
  ('CCTTACGGGTCACTGTCAGGTTATAGCATTTGGA', 'PBM binding z-score', 1.75),
  ('TGTCAAACTTCAAAGGTAACGTAAGTATCCACAC', 'PBM binding z-score', -0.455),
  ('CATACGGGGTCAGCTAGGCCAGAGTAGGGACGGC', 'PBM binding z-score', 3.01),
  ('GCATATAGGTAATACAAGGTGAAGGTCCGATTGT', 'PBM binding z-score', 0.103),
  ('AGAACGAGGGCAATGAGTTGATGGCACGGGTGGC', 'PBM binding z-score', 1.36),
  ('TCTTGTAAATCAATAGAGGTTAAGAAAGTGCGCT', 'PBM binding z-score', 1.23),
  ('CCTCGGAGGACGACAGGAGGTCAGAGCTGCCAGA', 'PBM binding z-score', -0.23),
  ('TAGCCTAGGTCATTGGGCCATTATAGTACGCATC', 'PBM binding z-score', 1.85),
  ('TCTTGTAGATCAATAGTGGTTAAGAAAGTGCGCT', 'PBM binding z-score', 0.933),
  ('TCGAGTAGGTTAGGGGCATACAGAATGGCGTCGA', 'PBM binding z-score', 0.367),
  ('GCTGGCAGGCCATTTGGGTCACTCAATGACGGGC', 'PBM binding z-score', -0.405);
